- protocol_summary: in vitro
- applied_conditions: human, liver microsomes
measure_name: microsomal CLint (µL/min/mg)

                                    compound  inequality_sign  result_number
 0            COc1ccnc(CCc2nc3ncccc3[nH]2)c1                <              3
 1     CC(C)C[C@H](NC(=O)N1CCOCC1)C(=O)NCC#N                <              3
 2  Cc1ccc(NC(=O)c2ccno2)cc1-n1cnc2ccc(N3CCN(C)CC3)cc2c1=O                <              3
 3  CCc1c(C)nc(SCC(=O)Nc2nc(-c3ccc(OC)cc3)cs2)nc1O                =           66.1
 4  CC(C(=O)O)c1cccc(Oc2ccccc2)c1 (centres undefined)                =           10.2
 5         CCc1cccc2c1N(C)Cc1cc3c(cc1-2)OCO3                =           44.7
 6  Cc1ccc(S(=O)(=O)Nc2c(C(=O)N(C)C3CCCCC3)c(C)nn2-c2ccccc2)cc1                =             53
 7       O=C(NS(=O)(=O)c1ccccc1Cl)c1ccc[nH]1                <              3
 8  CCS(=O)(=O)c1ccc(-c2cc(C(F)(F)F)ccc2O[C@@H](C)C(=O)O)c(C)c1                <              3
 9  CC(C)(C)c1cc(NC(=O)NCc2ccccc2Sc2ccc3nnc(-c4ccccc4SCCO)n3c2)n(-c2ccc(O)c(Cl)c2)n1                >            150
10     CNS(=O)(=O)Cc1ccc2[nH]cc(CCN(C)C)c2c1                <              3
11  O=C(CC12CC3CC(CC(C3)C1)C2)Nc1ccc2[nH]ncc2c1                =             21
12  COCCNCc1ccc(Nc2ncc3cc(-c4ccncc4)ccc3n2)cc1                =           42.7
13  Cc1[nH]c2ccc(-c3nnc(SCC(=O)N4CCCc5ccccc54)o3)cc2c1C                >            150
14  OCC(CO)Nc1nc(SCc2cccc(F)c2F)nc2nc(NC3CC3)sc12                =             46
15                      CCOc1ccc(NC(C)=O)cc1                =           24.6
16  COc1ccccc1CCNCc1ccc(CCNC[C@H](O)c2ccc(O)c3[nH]c(=O)sc23)cc1                =             25
17  CCCc1nn(C)c2c(=O)[nH]c(-c3cc(S(=O)(=O)N4CCN(C)CC4)ccc3OCC)nc12                =            132
18  CCOc1nc2cccc(C(=O)O)c2n1Cc1ccc(-c2ccccc2-c2nnn[nH]2)cc1                <              3
19  CCN(CC)CCNc1ncnc2c1sc1nc(N3CCOCC3)c3c(c12)CCCC3                =           9.55
20  CC(C)(C)NS(=O)(=O)c1cncc(-c2ccc3nc(NC(=O)NCC(=O)N4CCOCC4)nn3c2)c1                =              5
21  Cc1c(Sc2ccc(Cl)cc2)c2cc(-c3ccccc3)ccc2n1CC(=O)O                =             16
22  O=c1[nH]c2c(O)ccc([C@@H](O)CNCCCOCCNCCc3cccc(Cl)c3)c2s1                <              3
23  Cc1ccc(S(=O)(=O)Nc2c(C(=O)N[C@@H](C)C(C)(C)C)c(C(F)(F)F)nn2-c2ccccc2)cc1                =            120
24  CCC(CCNC)Oc1cc(Cl)ccc1C#N (centres undefined)                <              3
25  CC1Sc2c(C(=O)O)c(=O)c3cc(F)c(N4CCNCC4)cc3n21 (centres undefined)                =           13.8
26  CC(C)N(CCCNC(=O)Nc1ccc(C(C)(C)C)cc1)C[C@H]1O[C@@H](n2cnc3c(N)ncnc32)[C@H](O)[C@@H]1O                =            112
27  CCN(C(=O)Cc1ccc(S(C)(=O)=O)cc1)C1CCN(CCC(c2ccccc2)c2ccc(NC(=O)C(C)(C)C)cc2)CC1 (centres undefined)                <              3
28  CNC(=O)c1cccc2c1c(Sc1ccc(Cl)cc1)c(C)n2CC(=O)O                <              3
29  CN1CCC(Oc2cccc3ncnc(Nc4ccc(OCc5ccccn5)c(Cl)c4)c23)CC1                =             22
30  Cc1c(Cl)ccc(OC2CCN(CC3CCN([C@@H](Cc4ccc(F)cc4)C(=O)O)CC3)CC2)c1Cl                <              3
31         CCc1nc2c(N)nc3ccccc3c2n1Cc1ccccc1                <              3
32  Cc1ccccc1C[C@@H](C(=O)O)N1CCC(CN2CCC(Oc3ccc(Cl)c(Cl)c3)CC2)CC1                <              3
33   Nc1nnc(CCSCCc2nnc(NC(=O)Cc3ccccc3)s2)s1                =             55

* * *

- protocol_summary: physchem
- applied_conditions: octan-1-ol/water, pH 7.4, LogD7.4
measure_name: logD

                                    compound  measure_name  result_number
 0                  c1ccc(CNCCNCc2ccccc2)cc1          logD           0.73
 1  Cc1ccccc1-n1c(Cn2nc(-c3ccc(O)c(F)c3)c3c(N)ncnc32)nc2cccc(C)c2c1=O          logD           3.55
 2  CCC(CC)NC(=O)c1cnn(-c2ccccc2)c1NS(=O)(=O)c1ccc(-c2cnco2)cc1          logD            0.8
 3  O=C(Nc1ccc(N2CCOCC2)nc1)c1nnc(Nc2ccc(F)cc2)o1          logD              3
 4  Cc1c(CCC(=O)O)c[nH]c1/C=C1\C(=O)Nc2ccccc21          logD           1.05
 5  CC(O)(C(=O)Nc1ccc(S(=O)(=O)c2cccnc2)cc1)C(F)(F)F (centres undefined)          logD           2.08
 6  CC1(COc2cc(-c3cccc4c(=O)cc(N5CCOCC5)oc34)ccc2NC(=O)CN2CCOCC2)COC1          logD            2.2
 7  CC(NC(=O)C1(N)CCN(c2ncnc3[nH]ccc23)CC1)c1ccc(F)cc1 (centres undefined)          logD            2.4
 8     Cc1ccc(Oc2ccc(C(=O)NCc3ccncc3)cc2)cc1          logD           3.65
 9  CC(O)(C(=O)Nc1ccc(S(=O)(=O)c2ccccc2)cc1)C(F)(F)F (centres undefined)          logD           2.98
10  O=C(c1cc(Cc2n[nH]c(=O)c3ccccc23)ccc1F)N1CCN(C(=O)C2CCCO2)CC1 (centres undefined)          logD            0.9
11  COc1ncc(C)cc1-c1cccc2c(N)c(C(=O)NC3CC3)nnc12          logD            3.4
12  CC1Cc2ccccc2N1NC(=O)c1ccc(Cl)c(S(N)(=O)=O)c1 (centres undefined) [INDAPAMIDE]          logD           1.83
13  C[C@H]1C[C@@H](NS(=O)(=O)c2cc(Br)ccc2Br)CN1C#N          logD           2.13

* * *

- protocol_summary: in vitro
- applied_conditions: human, microsomes
# microsomal CLint per record follows
measure_name: microsomal CLint

In [3]: df
Out[3]:
                                 mol_smiles           result
0  Cc1ccc(C#N)cc1-c1cc(C(F)(F)F)ccc1OCC(=O)O    < 3 µL/min/mg
1   Cc1ccc2c(c1)c(Sc1ccccc1Cl)c(C)n2CC(=O)O    < 3 µL/min/mg
2   CCCCn1c(SCC(=O)Nc2cc(C)on2)nnc1-c1ccco1  > 150 µL/min/mg
